assay-summary: Oral bioavailability in Beagle dog at 1 mg/kg
Type: ADME, organism-based, Canis lupus familiaris
conditions: in vivo
observed-property: bioavailability

Examples with answers:
1. CCn1c(-c2cnc(C)nc2)nc2c(-c3cnc4c(c3)[C@](C)(NCC(C)(C)F)C(=O)N4)ncnc21	100%
2. CCn1c(-c2cnc(C)nc2)nc2c(-c3ccc4c(c3)[C@](C)(NCC(C)(C)F)C(=O)N4)ncnc21	25%
3. Cc1ncc(-c2nc3c(-c4ccc5c(c4)[C@@]4(CCCN4C(=O)C4CC4)C(=O)N5C)ncnc3n2C)cn1	82%
4. CCn1c(-c2cnc(C)nc2)nc2c(-c3cnc4c(c3)[C@](C)(N[C@H]3CCOC3)C(=O)N4)ncnc21	91%
5. CCn1c(-c2cnc(C)nc2)nc2c(-c3ccc4c(c3)[C@@]3(CCCN3C(=O)C3CC3)C(=O)N4)ncnc21	78%

Continue with the next molecule.
*Q* Entry CCn1c(-c2cnc(C)nc2)nc2c(-c3ccc4c(c3)[C@@]3(CCCN3C(=O)C3CC3)C(=O)N4C)ncnc21 has what bioavailability?
*A* 99%
